- TARGET UNDER TEST: sOGT (Homo sapiens, UniProt O15294)
- Sequence (O15294 382-1046): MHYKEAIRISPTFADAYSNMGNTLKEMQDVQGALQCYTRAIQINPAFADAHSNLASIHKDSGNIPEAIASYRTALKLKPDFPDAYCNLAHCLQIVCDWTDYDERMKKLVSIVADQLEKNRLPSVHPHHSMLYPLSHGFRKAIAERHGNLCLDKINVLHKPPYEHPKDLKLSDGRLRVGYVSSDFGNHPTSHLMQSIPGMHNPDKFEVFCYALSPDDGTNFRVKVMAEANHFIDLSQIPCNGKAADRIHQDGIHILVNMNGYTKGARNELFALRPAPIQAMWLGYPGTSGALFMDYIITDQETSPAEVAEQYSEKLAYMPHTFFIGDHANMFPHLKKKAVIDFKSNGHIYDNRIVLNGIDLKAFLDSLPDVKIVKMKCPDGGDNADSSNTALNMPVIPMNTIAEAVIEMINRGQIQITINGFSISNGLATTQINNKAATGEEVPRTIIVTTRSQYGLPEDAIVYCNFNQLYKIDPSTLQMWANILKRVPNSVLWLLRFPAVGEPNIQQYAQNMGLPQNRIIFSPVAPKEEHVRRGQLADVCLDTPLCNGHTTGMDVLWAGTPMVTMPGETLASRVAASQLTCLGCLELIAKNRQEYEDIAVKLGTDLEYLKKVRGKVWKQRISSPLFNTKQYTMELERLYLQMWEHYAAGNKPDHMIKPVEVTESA
QUANTITY: Ki
Just the number plus its unit, please.

Provide one value: measured Ki of "O=C([C@H](NS(=O)(=O)c1ccc2[nH]c(=O)ccc2c1)c1ccccc1)N1CCC(Cc2ccccc2)CC1"
2 µM

* * *

Kindly supply the reported remaining activity at 100 µM values for the records listed here.
- TARGET UNDER TEST: sOGT (Homo sapiens)
- PROCEDURE DETAILS: Fluorescence polarization displacement screen with fluorescein-linked UDP-GlcNAc analog
- Type: binding
- SETUP CONDITIONS: 100 μM treatment; read-out: % OGT activity (100 μM treatment)
Value expressed in %; do not type the unit.

Please report the measured remaining activity at 100 µM for "O=C([C@H](NS(=O)(=O)c1ccc2[nH]c(=O)ccc2c1)c1ccc(F)cc1)N(Cc1ccco1)Cc1cccs1" tested on sOGT (Homo sapiens).
5

Please report the measured remaining activity at 100 µM for "CN1CCN(C(=O)[C@H](NS(=O)(=O)c2ccc3[nH]c(=O)ccc3c2)c2ccccc2)CC1" tested on sOGT (Homo sapiens).
47

Please report the measured remaining activity at 100 µM for "O=C([C@H](NS(=O)(=O)c1ccc2[nH]c(=O)ccc2c1)C1CCCCC1)N(Cc1ccco1)Cc1cccs1" tested on sOGT (Homo sapiens).
22

Please report the measured remaining activity at 100 µM for "COc1cccc([C@@H](NS(=O)(=O)c2ccc3[nH]c(=O)ccc3c2)C(=O)N(Cc2ccco2)Cc2cccs2)c1" tested on sOGT (Homo sapiens).
2.5

Please report the measured remaining activity at 100 µM for "CCNC(=O)[C@H](NS(=O)(=O)c1ccc2[nH]c(=O)ccc2c1)c1ccccc1" tested on sOGT (Homo sapiens).
26

Please report the measured remaining activity at 100 µM for "O=C(NCc1ccco1)[C@H](NS(=O)(=O)c1ccc2[nH]c(=O)ccc2c1)c1ccccc1" tested on sOGT (Homo sapiens).
64

Please report the measured remaining activity at 100 µM for "CN(Cc1cccs1)C(=O)[C@H](NS(=O)(=O)c1ccc2[nH]c(=O)ccc2c1)c1ccccc1" tested on sOGT (Homo sapiens).
2.5

Please report the measured remaining activity at 100 µM for "CN(Cc1ccco1)C(=O)[C@H](NS(=O)(=O)c1ccc2[nH]c(=O)ccc2c1)c1ccccc1" tested on sOGT (Homo sapiens).
5

Please report the measured remaining activity at 100 µM for "O=C([C@H](NS(=O)(=O)c1ccc2[nH]c(=O)ccc2c1)c1ccccc1Cl)N(Cc1ccco1)Cc1cccs1" tested on sOGT (Homo sapiens).
4

Please report the measured remaining activity at 100 µM for O=C(C1c2ccccc2CN1S(=O)(=O)c1ccc2[nH]c(=O)ccc2c1)N(Cc1ccco1)Cc1cccs1 (centres unmarked) [drawing 109] tested on sOGT (Homo sapiens).
56

Please report the measured remaining activity at 100 µM for "O=C([C@H](NS(=O)(=O)c1ccc2[nH]c(=O)ccc2c1)c1ccc(O)cc1)N(Cc1ccco1)Cc1cccs1" tested on sOGT (Homo sapiens).
0.7

Please report the measured remaining activity at 100 µM for O=C(C1c2ccccc2CCN1S(=O)(=O)c1ccc2[nH]c(=O)ccc2c1)N(Cc1ccco1)Cc1cccs1 (centres unmarked) [drawing 110] tested on sOGT (Homo sapiens).
47

Please report the measured remaining activity at 100 µM for "O=C([C@H](NS(=O)(=O)c1ccc2[nH]c(=O)ccc2c1)c1ccccc1)N1CCCCC1" tested on sOGT (Homo sapiens).
22

Please report the measured remaining activity at 100 µM for "O=C([C@H](NS(=O)(=O)c1ccc2[nH]c(=O)[nH]c(=O)c2c1)c1ccccc1)N(Cc1ccco1)Cc1cccs1" tested on sOGT (Homo sapiens).
68

The measurements presented in this section are drawn from patent US20170166558A1.
